# assayMethodText: in vivo
# details: rat, in vivo, iv, 10 mg/kg, CLR, tofacitinib 10 mg/kg intravenous; LC rats
measurementKind: CL renal

Can you share its CL renal? I mean this compound: C[C@@H]1CCN(C(=O)CC#N)C[C@@H]1N(C)c1ncnc2[nH]ccc12 [tofacitinib]
4.65 mL/min/kg

---

# assayMethodText: in vivo
# details: rat, in vivo, iv, 10 mg/kg, Vss, tofacitinib 10 mg/kg intravenous; LC rats
measurementKind: Vd (L/kg)
Numbers only, in L/kg.

What measured Vd goes with C[C@@H]1CCN(C(=O)CC#N)C[C@@H]1N(C)c1ncnc2[nH]ccc12 ?
0.798
